Biological target: UniProtKB P14416
Experiment: Partial agonistic activity at human dopamine D2 receptor expressed in CHO cells by assay [35S]GTPgamma assay with scintillation proximity affinity assay
pKi: −log10 of the molar value.
metric: pKi

[
  {
    "molecule": "O=C1N(CC2CCNCC2)CCN1c1cccc(Cl)c1",
    "readout_value": "< 6.20"
  },
  {
    "molecule": "O=C1N(CC2CCCNC2)CCN1c1cccc(Cl)c1 (centres undefined)",
    "readout_value": "< 6.20"
  },
  {
    "molecule": "Cc1ccccc1N1CCN(CCN2CCCCCC2)C1=O",
    "readout_value": "< 6.20"
  },
  {
    "molecule": "O=C1N(CC2CCCCN2)CCN1c1cccnc1 (centres undefined)",
    "readout_value": "< 6.20"
  }
]

----------
Molecular target: UniProt P35462
Experiment: Antagonist activity at human dopamine D3 receptor expressed in CHO cells assessed as inhibition of quinperol-induced [35S]GTPgamma binding by scintillation proximity affinity assay
log10(Ki) values, listed per item
metric: log10(Ki) (log10 of the value in nM)

[
  {
    "smiles_text": "O=c1n(CCCN2CCCCCC2)ccn1-c1cccc(Cl)c1",
    "readout_value": 2.10
  },
  {
    "smiles_text": "O=S1(=O)N(CCN2CCCCCC2)CCN1c1cccc(Cl)c1",
    "readout_value": 2.50
  },
  {
    "smiles_text": "O=C1N(CCN2CCCCCC2)CCN1c1ccc(Cl)cc1",
    "readout_value": 1.90
  },
  {
    "smiles_text": "O=C1N(CCN2CCCCCC2)CCN1c1ccccc1",
    "readout_value": 1.80
  },
  {
    "smiles_text": "O=C1N(CCN2CCCCCC2)CCN1c1cccc(Cl)c1",
    "readout_value": 0.70
  },
  {
    "smiles_text": "COc1cccc(N2CCN(CCN3CCCCCC3)C2=O)c1",
    "readout_value": 1.70
  }
]

----------
Target: D(2) dopamine receptor (Homo sapiens, UniProt P14416)
Sequence (P14416 whole entry): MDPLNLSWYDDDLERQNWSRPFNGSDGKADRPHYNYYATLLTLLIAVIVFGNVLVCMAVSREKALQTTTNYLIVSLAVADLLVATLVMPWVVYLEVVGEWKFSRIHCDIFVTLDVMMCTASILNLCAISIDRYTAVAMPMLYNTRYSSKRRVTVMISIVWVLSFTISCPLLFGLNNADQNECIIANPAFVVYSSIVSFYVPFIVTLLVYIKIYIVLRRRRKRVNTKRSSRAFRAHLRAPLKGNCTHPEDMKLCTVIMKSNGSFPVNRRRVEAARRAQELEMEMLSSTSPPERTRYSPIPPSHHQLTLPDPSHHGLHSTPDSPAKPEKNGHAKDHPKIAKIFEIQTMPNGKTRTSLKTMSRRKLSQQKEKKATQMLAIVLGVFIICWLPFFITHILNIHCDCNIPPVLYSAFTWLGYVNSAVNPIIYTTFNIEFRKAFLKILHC
Assay: Partial agonistic activity at human dopamine D2 receptor expressed in CHO cells by assay [35S]GTPgamma assay with scintillation proximity affinity assay
pEC50: −log10 of the molar value.
Recorded pEC50 by entry
metric: pEC50

[
  {
    "molecule": "COc1cccc(N2CCN(CCN3CCCCCC3)C2=O)c1",
    "readout_value": "< 5.10"
  },
  {
    "molecule": "O=C1N(CC2CCCCN2)CCN1c1cccc(C(F)(F)F)c1 (stereo not drawn)",
    "readout_value": "< 5.10"
  },
  {
    "molecule": "O=C1N(CCN2CCCCCC2)CCN1c1ccncc1",
    "readout_value": "< 5.50"
  }
]

----------
Biological target: D(3) dopamine receptor (Homo sapiens, UniProt P35462)
Sequence (P35462 whole entry): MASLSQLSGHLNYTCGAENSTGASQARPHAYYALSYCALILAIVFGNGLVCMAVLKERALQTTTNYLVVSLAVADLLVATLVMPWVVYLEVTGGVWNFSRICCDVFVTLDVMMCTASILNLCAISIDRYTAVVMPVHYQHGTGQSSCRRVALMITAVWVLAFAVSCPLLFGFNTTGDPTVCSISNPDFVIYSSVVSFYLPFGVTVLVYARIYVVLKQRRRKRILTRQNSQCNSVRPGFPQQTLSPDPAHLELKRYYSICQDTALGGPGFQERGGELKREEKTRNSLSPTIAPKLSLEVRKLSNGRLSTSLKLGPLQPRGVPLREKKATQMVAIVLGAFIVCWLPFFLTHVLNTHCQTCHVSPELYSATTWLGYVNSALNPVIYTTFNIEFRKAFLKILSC
Assay: Antagonist activity at human dopamine D3 receptor expressed in CHO cells assessed as inhibition of quinperol-induced [35S]GTPgamma binding by scintillation proximity affinity assay
pKi: −log10 of the molar value.
In this section, each of the compounds is paired with its reported pKi.

[
  {
    "compound": "Cc1ccccc1N1CCN(CCN2CCCCCC2)C1=O",
    "system_under_test": "D(3) dopamine receptor (Homo sapiens, UniProt P35462)",
    "pKi": "< 6.20"
  },
  {
    "compound": "O=C1N(CC2CCNCC2)CCN1c1cccc(Cl)c1",
    "system_under_test": "D(3) dopamine receptor (Homo sapiens, UniProt P35462)",
    "pKi": "< 6.20"
  },
  {
    "compound": "O=c1n(CCN2CCCCCC2)ccn1-c1cccc(Cl)c1",
    "system_under_test": "D(3) dopamine receptor (Homo sapiens, UniProt P35462)",
    "pKi": "< 6.20"
  },
  {
    "compound": "O=C1N(CC2CCCCN2)CCN1c1cccnc1 (stereo unspecified)",
    "system_under_test": "D(3) dopamine receptor (Homo sapiens, UniProt P35462)",
    "pKi": "< 6.20"
  },
  {
    "compound": "O=C1N(CCN2CCCCCC2)CCN1c1ccncc1",
    "system_under_test": "D(3) dopamine receptor (Homo sapiens, UniProt P35462)",
    "pKi": "< 6.20"
  },
  {
    "compound": "O=C1N(CC2CCCNC2)CCN1c1cccc(Cl)c1 (stereo unspecified)",
    "system_under_test": "D(3) dopamine receptor (Homo sapiens, UniProt P35462)",
    "pKi": "< 6.20"
  }
]
